assay: self-splicing fitness, log relative to wild type (ln ratio); higher = more splicing; Tetrahymena group I intron in knt gene, E. coli kanamycin selection, DiMSum; sequences stand for … in CUCUCU…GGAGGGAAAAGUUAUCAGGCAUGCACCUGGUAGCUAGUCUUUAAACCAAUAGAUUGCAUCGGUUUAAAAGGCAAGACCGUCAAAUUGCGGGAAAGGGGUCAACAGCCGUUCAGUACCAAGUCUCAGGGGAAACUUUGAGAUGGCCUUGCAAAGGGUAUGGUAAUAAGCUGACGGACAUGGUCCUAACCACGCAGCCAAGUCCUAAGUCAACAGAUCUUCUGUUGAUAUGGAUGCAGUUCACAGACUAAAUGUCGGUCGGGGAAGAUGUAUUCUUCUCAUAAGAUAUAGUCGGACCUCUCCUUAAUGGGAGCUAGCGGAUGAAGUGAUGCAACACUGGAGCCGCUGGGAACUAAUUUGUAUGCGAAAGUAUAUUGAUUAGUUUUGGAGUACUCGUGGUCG; details: 37 °C;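 note: selection with 25 µg/mL kanamycin versus none on LB agar overnight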
Metric Name: self-splicing fitness (ln)
Reply with the value as a number alone.

Can you look up the measured self-splicing fitness (ln) of GGGCAGCAAUAUUACGUAGA for me?
-0.244

Another sequence to look at: GUGUAGCAAUAUUACGGUAU
-0.18

And what about the sequence GGGUAGCAAUAUUACGAUUU ?
-0.476

Record: UAUAAGCAAUAUUACGGGCA
0.213

What would you report for CGUAAGCAAUAUUACGUGUG ?
-0.745

Another sequence to check: GUCUAGCAAUAUUACGAAAA
-1.26

Then this sequence: CCGGAGCAAUAUUACGACGC
-2.22

Again, but for CACCAGCAAUAUUACGCUCG
0.219

Another sequence: GCUAAGCAAUAUUACGCCUC
-0.286

Continue with UAGCAGCAAUAUUACGGGCU
-1.08

Can you handle UAGGAGCAAUAUUACGACUA next?
-1.53

Also, AGUGAGCAAUAUUACGUCUC please.
-2.46

One more sequence: UUCCAGCAAUAUUACGAAUU
-2.05

Same question for GAUUAGCAAUAUUACGGCGG please.
-2.17

# iterate: AGCAAGCAAUAUUACGCACC
0.533

Another: CUGCAGCAAUAUUACGCCGG
-1.56

Field entry: CGACAGCAAUAUUACGAGAC
-2.57

// same read-out, input: UAAAAGCAAUAUUACGUGAA
-1.06

Please answer likewise for UCUGAGCAAUAUUACGGUGC
-2.45

Follow-up entry: CCCAAGCAAUAUUACGGACA
-2.07

// repeat for AACAAGCAAUAUUACGUGAA and report
-0.353

# repeat for GUGAAGCAAUAUUACGCGUU
-2.02

Then this sequence: CGCAAGCAAUAUUACGCAAA
-2.99

Thanks! And CAGUAGCAAUAUUACGCACA ?
-0.579

Also, GCUAAGCAAUAUUACGCAAG please.
-1.46

Now try UGACAGCAAUAUUACGUGAC .
-1.37

What do we get for CCAAAGCAAUAUUACGAUUC ?
-1.71

What about this sequence? AGAGAGCAAUAUUACGGAGU
-3.3

Record: UACUAGCAAUAUUACGGUAC
-2.53

Follow-up item: UAACAGCAAUAUUACGGGGC
-2.86

Cool, now UAGAAGCAAUAUUACGGGCC
-1.9

Next up: AUAGAGCAAUAUUACGCACC
-1.41

Quick one: CUAUAGCAAUAUUACGUAGG
-0.685

Now try ACUUAGCAAUAUUACGUGCA .
-0.535

Field entry: GUAAAGCAAUAUUACGCACG
-0.242

Try this sequence too: GACUAGCAAUAUUACGCACU
0.415

Now try UGUAAGCAAUAUUACGUCUU .
-0.338

Again, but for GCCAAGCAAUAUUACGAUAG
-2.43

Continue with UUUAAGCAAUAUUACGUUUG
-1.42

How about UACUAGCAAUAUUACGGCAU ?
-1.28

Again, but for CUUGAGCAAUAUUACGGCUG
-1.46

Also check CAGUAGCAAUAUUACGGAAC
-2.72

Now give it for UAGCAGCAAUAUUACGCAUC too.
-3.39

// next record GUAUAGCAAUAUUACGGGGG
-2.53

Another sequence: GAGAAGCAAUAUUACGAGAA
-0.703

Next entry: CCUAAGCAAUAUUACGCACA
-1.2

Now consider AACCAGCAAUAUUACGAAAA .
-1.3

Next record, please: UGACAGCAAUAUUACGAUUA
0.419

Query UCCUAGCAAUAUUACGAAUC next
-2.17

Can you check UGCGAGCAAUAUUACGGUUG next?
-1.82

One more sequence: GGUAAGCAAUAUUACGGCAU
0.827

Then this sequence: CAAUAGCAAUAUUACGUUCC
-2.13

Next entry: ACGCAGCAAUAUUACGUGGU
-2.58

Now give it for CCGGAGCAAUAUUACGGAUU too.
-1.82

Follow-up item: UCCUAGCAAUAUUACGAGAA
-0.965

Same question for CAUGAGCAAUAUUACGUUAC please.
-3.39

Param item: ACCAAGCAAUAUUACGGAGU
-2.25

And what about the sequence AUCAAGCAAUAUUACGGAUG ?
-0.664

Likewise for GCUGAGCAAUAUUACGAGAU ?
-2.09

Repeat for the following sequence: ACGUAGCAAUAUUACGCAGU
-2.54

Subsequent entry: AGAUAGCAAUAUUACGCCAU
-1.27

Next record, please: ACCGAGCAAUAUUACGGUGC
-3.33

What about this sequence? ACUCAGCAAUAUUACGAUGA
-0.791

Cool, now CGAUAGCAAUAUUACGCGAU
-2.6

Again, but for ACACAGCAAUAUUACGUGUA
-2.06

Try the sequence GUUUAGCAAUAUUACGUCGC
-0.462

Next entry: UACUAGCAAUAUUACGUUCG
-0.484
